Target Or System: 5-hydroxytryptamine receptor 2A (Homo sapiens, UniProt P28223)
Sequence (P28223 whole entry): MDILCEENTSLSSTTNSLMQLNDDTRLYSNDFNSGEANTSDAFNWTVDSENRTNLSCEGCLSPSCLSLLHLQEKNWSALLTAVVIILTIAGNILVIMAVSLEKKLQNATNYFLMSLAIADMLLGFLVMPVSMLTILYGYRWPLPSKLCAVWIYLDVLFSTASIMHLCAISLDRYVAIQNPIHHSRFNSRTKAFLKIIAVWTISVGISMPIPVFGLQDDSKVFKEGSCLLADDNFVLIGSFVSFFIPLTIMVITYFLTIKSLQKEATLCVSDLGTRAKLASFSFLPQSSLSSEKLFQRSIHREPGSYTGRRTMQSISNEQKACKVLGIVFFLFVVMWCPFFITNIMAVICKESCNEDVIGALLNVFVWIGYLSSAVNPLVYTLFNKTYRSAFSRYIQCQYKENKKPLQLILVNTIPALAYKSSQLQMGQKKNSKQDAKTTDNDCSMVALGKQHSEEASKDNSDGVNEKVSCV
Experimental Details: Antagonist activity at human cloned 5HT2A receptor
Assay type: functional
Reported Endpoint: pA2
Numbers only.

Worked set:
Compound	Obs Value
O=C(c1ccc(F)cc1)C1CCN(CCC2CCc3occc3C2=O)CC1 (centres undefined)	7.58
O=C1CC(CN2CCC(C(=O)c3ccc(F)cc3)CC2)Cc2occc21 (centres undefined)	7.28
O=C1c2ccoc2CCC1CCN1CCC(c2noc3cc(F)ccc23)CC1 (centres undefined)	9.25

Next compound, pA2 to be filled in.
Lab note: O=C1CC(CN2CCC(c3noc4cc(F)ccc34)CC2)Cc2occc21 (racemic) gave pA2 of 7.95
